- experimental_details: IVIVE: steady-state concentration (Css), generic HTTK model
- Set-up: species or system human
- recorded_conditions: Assuming 1 mg/kg/day dose rate; BW 70 kg
Reported Css (mg/L) values for a set of compounds
Give the quantity in mg/L, number only.

compound=O=C(O)C(F)(F)C(F)(F)C(F)(F)OC(F)(F)F parameter_measured="Css (mg/L)" measurement_unit=mg/L result_number=6.16
compound=O=C(O)C(F)(F)C(F)(F)C(F)F parameter_measured="Css (mg/L)" measurement_unit=mg/L result_number=1.41
compound=O=C(O)C(F)(F)C(F)(F)C(F)(F)C(F)(F)C(F)(F)C(F)(F)C(F)F parameter_measured="Css (mg/L)" measurement_unit=mg/L result_number=114.93
compound="O=S(=O)([O-])C(F)(F)C(F)(F)C(F)(F)C(F)(F)C(F)(F)C(F)(F)C(F)(F)C(F)(F)C(F)(F)C(F)(F)F.[Na+] [Sodium perfluorodecanesulfonate (NaPFDS)]" parameter_measured="Css (mg/L)" measurement_unit=mg/L result_number=4.57
compound="N.O=C(O)C(F)(F)C(F)(F)C(F)(F)C(F)(F)C(F)(F)C(F)(F)C(F)(F)F [Ammonium perfluorooctanoate (NH4PFOA)]" parameter_measured="Css (mg/L)" measurement_unit=mg/L result_number=81.36

GET /values?readout=Css (mg/L)&item= O=C(O)CCC(F)(C(F)(F)F)C(F)(F)F
2.52

GET /values?readout=Css (mg/L)&item= O=S(=O)(O)C(F)(F)C(F)(F)C(F)(F)C(F)(F)C(F)(F)C(F)(F)C(F)(F)F
402.24

GET /values?readout=Css (mg/L)&item= O=C(O)C=CC(F)(C(F)(F)F)C(F)(F)F
2.41

GET /values?readout=Css (mg/L)&item= O=S(=O)([O-])C(F)(F)C(F)(F)C(F)(F)C(F)(F)C(F)(F)C(F)(F)F.[K+]
241.34

GET /values?readout=Css (mg/L)&item= NS(=O)(=O)C(F)(F)C(F)(F)C(F)(F)C(F)(F)C(F)(F)C(F)(F)F [Perfluorohexanesulfonamide (PFHxSA)]
603.36

GET /values?readout=Css (mg/L)&item= O=C(O)C(F)(F)C(F)(F)F
0.78

GET /values?readout=Css (mg/L)&item= O=S(=O)(O)CCC(F)(F)C(F)(F)C(F)(F)C(F)(F)C(F)(F)C(F)(F)F
5.29

GET /values?readout=Css (mg/L)&item= O=C([O-])C(F)(F)C(F)(F)C(F)(F)C(F)(F)C(F)(F)C(F)(F)C(F)(F)F.[K+] [Potassium perfluorooctanoate (KPFOA)]
134.08

GET /values?readout=Css (mg/L)&item= O=C(Cl)C(F)(F)C(F)(F)C(F)(F)C(F)(F)C(F)(F)C(F)(F)F [Perfluoroheptanoyl chloride (PFHpA-Cl)]
180.82

GET /values?readout=Css (mg/L)&item= O=C(O)C(F)(F)C(F)(F)C(F)(F)C(F)(F)C(F)(F)C(F)(F)C(F)(F)C(F)F
268.16

GET /values?readout=Css (mg/L)&item= O=S(=O)(O)C(F)(F)C(F)(F)C(F)(F)C(F)(F)C(F)(F)C(F)(F)C(F)(F)C(F)(F)F [Perfluorooctane sulfonate (PFOS)]
49.25

GET /values?readout=Css (mg/L)&item= O=S(=O)([O-])C(F)(F)C(F)(F)C(F)(F)C(F)(F)C(F)(F)C(F)(F)C(F)(F)C(F)(F)F.[K+]
60.34

GET /values?readout=Css (mg/L)&item= O=C(Cl)C(F)(F)C(F)(F)C(F)(F)C(F)(F)C(F)(F)C(F)(F)C(F)(F)F
3584.17

GET /values?readout=Css (mg/L)&item= O=C(O)C(F)(F)C(F)(F)C(F)(F)C(F)(F)C(F)(F)C(F)(F)C(F)(F)C(F)(F)C(F)(F)F
89.39

GET /values?readout=Css (mg/L)&item= O=C(O)C(F)(F)C(F)(F)C(F)(F)C(F)(F)C(F)(F)C(F)(F)C(F)(F)C(F)(F)C(F)(F)C(F)(F)F
20.81

The reported measurements were obtained from paper PMC11435625.
